Biological target: cAMP-dependent protein kinase catalytic subunit alpha (Homo sapiens) (UniProt P17612)
Test: Protein Kinase A (PKA-HiBiT) SDR gain of signal screen
Details: PKA-HiBiT structural dynamics response (SDR), luminescence gain of signal; series mostly up to 32.9 µM
Results filed as inconclusive are left out. The source made the active and inactive calls. Calls come from the whole dose curve.
# valid calls are 1.0 = active, 0.0 = inactive; nothing else

Which result was noted for this compound in the test: CCCCCCCCCCCCc1ccc(S(=O)(=O)Nc2nncs2)cc1
0.0

For CCOc1ccn(-c2ccc(F)cc2)c(=O)c1C(=O)Nc1ccc(Oc2ccnc(N)c2Cl)c(F)c1 , what call appears in the results of this test?
1.0

// return assay outcome for COc1ccccc1-c1c[nH]c2ncc(-c3cncc(C(=O)N(C)C)c3)cc12
0.0
